# System: K4 kissing-loop RNA reporter;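 further: bound reporter read as fluorescence of individual clusters on recovered sequencing chips by microscopy, with normalized cluster intensities fitted with a binding model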
# Assay notes: apparent KD of K4 kissing-loop reporter; higher = weaker reporter binding
# Study conditions: Eterna round: R107; input ligand: tryptophan 2.4 mM
Can you tell me apparent KD of K4 kissing-loop reporter for the items I'm about to list?
Answers are plain numbers, in nM.

{"columns": ["Item sequence", "Measurement target", "apparent KD of K4 kissing-loop reporter (nM)"],
 "data": [
  ["AGGCACGAGCAAGGAUAUCGAGUAGAGUGAUGUUCUGCCUGGGUUGGCUCGUAAGAGCCUUCUCAGCGAGAAGGUGCUCGUGCCU [#2 Same State - FMN A Attempt #20 (HarryS)]", "K4 kissing-loop RNA reporter", 944],
  ["UGAUCUGCAGUGAUGUUGCAGUAGCUGUCAGAGGAUAUCAGACUCAUGAGAAGGCUGACAAUGUCUAACAGCACAAUGCUGUUCA [FMN A SS t6]", "K4 kissing-loop RNA reporter", 146],
  ["CGCCGAUUGUCGGAGUGAUGUUCCCGGGAUACCAGCACGUCGUCAUGCCCUUGGCAGCCCAACAGACCAUUUUAAAGGCUAGCUG [theeternabot_sameState_KL_Theo_A_35]", "K4 kissing-loop RNA reporter", 158]
]}

# return apparent KD of K4 kissing-loop reporter for each item in the list
1. AUUUAAUGUAUAGAUUAUAUACAUAAUUCAGAGGAUAUGCGAAGAAGCAGAAGGCUGGUUGCAGUGAUGUUGCUUUUAUAAUUUA [JR_SSFMNA_Sub009]
2. GCGCCGGUCUGCUUUAGAGUGAUGUUCUCCCGAGGACCGGUACGGCCGCCACUCGGCCAACGCUAUUAUCUUUGAUCCGCGGUGC [theeternabot_exclusion_KL_Trp_A_41]

1. 59.9
2. 948

For each entry beneath this line, provide reported apparent KD of K4 kissing-loop reporter.
1. AGACUACCACACUGUCAAUAGACAGUGAACUAGGAUAUGCUGAUAAGCAGAAGGAGUGAUGUUCCCAGGUAGUCAAUAAAAUAAU [FmnAX 13 C66]
2. UAGAAGAGAAGCGAUACCAGCGAAUGAAGAAGAUGAUGAAGCCAGUGAUGUUGGAAAGAACGCCCUUGGCAGCGCAAGAGAAGAU

1. 223
2. 83.2

I need apparent KD of K4 kissing-loop reporter for every entry listed below, if you could help.
1. CUGUUUGGUUGAGAGGUUGGGCGGAAUGAUACCAGUAUAUAAGAAUACCCUUGGCAGCAUAAGAAAGAUAUAGUGAUGUUGUAUA [SSTheophA.K]
2. UGAUACCAGGCGGCCGCCACUCCUGCAGGUCAAAGACCUGUGAAGCUGGUUCUCCAGUGAUGUUGGAGGACCGGGCCUGGUAUCU [FiskerMod 27 - Jieux - Exclusion - Tryptophan B]
3. UCCUGCAAUCGACCACGAAAGUGGAUCGAUACCAGAGUCGAAAGACUCCCUUGGCAGCGAGUGAUGUUCGAGCAGGUAAAAUAAA [#SwitchBubble 23 #K4Late]

417
356
486

Please give apparent KD of K4 kissing-loop reporter for each item listed below.
1. AAGGACUGCCAGGGAACACACUCAUUAUGGGAGGAUAUGUUAGCUGACAGAAGGCCCAGUGAUGUUGGGCCGGCGGGCUGUCAGG [Diargean]
2. UCGAAGGAUGGAAGGAGCGCUCGUCAGUCCUGCGAGUGAUGUUCGUGGGUAAAUAUUCGCGAGCAGGUAGGUCGCCAUCUCGAAC [Erbemaa]
3. AGUUAUGUAUCAGGAUAUUAGUGAUGUUUGUUUUUGUUAGUGAUGUUGAUAUUUGUUUUAUGUAUUUAAGAAGGGAUUGAGAUGU [qsszmullin]
4. GGUAGCAUGGCGGCCGCCACUUUAUACUCGGUCGUUGGCGUCGUAAGUGAUGUUUACAUUCGCAAAAGGACCGGGCCAUGCUACC
5. CUCUUCUUUCUUUUAGUGAUGUUAAAUUAGCGAGGACCGGUACGGCCGCCACUCGUAUAGCUGGAAUGACUGUGCGAGGGUUUGU

[177, 117, 52.4, 133, 790]

Provide each entry's apparent KD of K4 kissing-loop reporter from the list below.
1. GGCACUUUUGCUUGGAACCGUCAAGCUCGAUAGGAUAUGCCGAAAGGCAGAAGGAUUGACCUACAGAGUGAUGUUCUGCGUGCCU
2. CCAGGACGAUGAGGAGGAUGAAUUACUGAAGGAGCGCAUAUGGUUGCAGGUAGGUCGCGGUGAACAAGUAUAGUGAUGUUAUAUC [SSArgA.S]
3. GCUAAGGAGUGAUGUUCCAAGUGAUGUUAACGAGGACCGGUACGGCCGCCACUCGAUACGGCCGGAAAGUAAGAUAAACUACAGU [Same State - Tryptophan A (Freestyle 4)]
4. UUGUAUACUUUUGUGUGCGAUGUGUAGCCGCGAGGACCGGUACGGCCGCCACUCGCUGAGAGUGAUGUUCUCUGGGCUAUAUAUC [Skye_SS_TA3]
5. UGUGAACAAAAGUAGAGUGGACCACUAUAGCGAGGACCGGUACGGCCGCCACUCGUACAUGAAUUCAGUGAUGUUGAAAUGAGCU [whbob_EX_Tryp_A_t14]
6. GCAUGGGUGCUUGCACAAGUGAUGUUUGGGCGAGGACCGGUACGGCCGCCACUCGUACGUUUAGUUAAAAGACAUCAUGCGAGUC [theeternabot_exclusion_KL_Trp_A_11]

1. 408
2. 321
3. 64.7
4. 234
5. 213
6. 164

Dear reader, for each entry below, please note its apparent KD of K4 kissing-loop reporter.
1. AGGAGUGAUGUUCCUACAUACACGGUCCGACGAGGACCGGUACGGCCGCCACUCGCGUCCCAGUGAUGUUGGGAUUUGGCGUACG [Exclusion Tryptophan A GF 17]
2. UGUCAUUGGUCUGAUACCAGUCCCUUGGCAGCCUAAAGGAGUGAUGUUCCAAGGAUACCAGACCCUUGGCAGCAGACCGAUGACU [TheoBS 28 #DoubleAptamer #SwitchBubble]

154
354
